The values you see were collected from ChEMBL document CHEMBL5154883.

biological target: Epidermal growth factor receptor (Homo sapiens, UniProt P00533, C797S/EX19DEL/T790M); assay: Inhibition of EGFR 19 del/T790M/C797S mutant (unknown origin) by ELISA
Sequence (P00533 whole entry, looked up, stated change not applied): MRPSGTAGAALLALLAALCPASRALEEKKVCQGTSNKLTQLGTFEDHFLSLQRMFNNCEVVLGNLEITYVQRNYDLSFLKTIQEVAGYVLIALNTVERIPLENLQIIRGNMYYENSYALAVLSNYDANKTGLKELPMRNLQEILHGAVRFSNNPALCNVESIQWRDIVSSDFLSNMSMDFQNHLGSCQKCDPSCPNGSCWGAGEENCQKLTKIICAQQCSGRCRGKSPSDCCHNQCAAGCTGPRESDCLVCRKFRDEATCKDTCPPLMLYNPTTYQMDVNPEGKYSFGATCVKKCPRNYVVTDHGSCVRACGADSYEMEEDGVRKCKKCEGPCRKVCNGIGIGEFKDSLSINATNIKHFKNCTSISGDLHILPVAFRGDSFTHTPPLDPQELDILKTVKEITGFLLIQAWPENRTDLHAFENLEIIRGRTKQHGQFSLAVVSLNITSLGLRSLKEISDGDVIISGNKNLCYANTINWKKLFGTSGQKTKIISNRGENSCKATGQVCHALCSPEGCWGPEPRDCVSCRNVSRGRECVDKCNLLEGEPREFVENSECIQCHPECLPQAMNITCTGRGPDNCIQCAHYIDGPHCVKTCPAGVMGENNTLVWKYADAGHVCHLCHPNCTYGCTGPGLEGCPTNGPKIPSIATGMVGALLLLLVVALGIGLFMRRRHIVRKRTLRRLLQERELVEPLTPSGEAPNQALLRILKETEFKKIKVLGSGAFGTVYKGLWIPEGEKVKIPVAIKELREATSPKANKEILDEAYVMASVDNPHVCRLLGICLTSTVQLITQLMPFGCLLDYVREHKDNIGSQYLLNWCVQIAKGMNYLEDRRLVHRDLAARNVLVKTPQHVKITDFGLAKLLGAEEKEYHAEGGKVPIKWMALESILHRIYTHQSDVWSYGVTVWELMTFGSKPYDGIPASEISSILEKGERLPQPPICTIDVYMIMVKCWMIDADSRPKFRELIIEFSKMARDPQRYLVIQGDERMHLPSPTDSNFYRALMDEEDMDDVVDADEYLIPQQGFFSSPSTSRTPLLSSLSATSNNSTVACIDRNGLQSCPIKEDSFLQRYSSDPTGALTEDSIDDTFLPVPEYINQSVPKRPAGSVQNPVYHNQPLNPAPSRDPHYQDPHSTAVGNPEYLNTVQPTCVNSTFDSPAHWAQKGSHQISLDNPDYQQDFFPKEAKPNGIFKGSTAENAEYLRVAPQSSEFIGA
Quick reference for IC50 among some molecules
Give a bare numeral; the unit nM is implied.

Task item: Please report the measured IC50 for CCS(=O)(=O)n1cc(-c2nc(Nc3cc(Cl)c(N4CCC(N5CCN(C)CC5)CC4)cc3OC(C)C)ncc2Cl)c2ccccc21
Reply: 8.1

Further cases:
Task item: Please report the measured IC50 for CCOc1cc(N2CCC(N3CCN(C)CC3)CC2)c(Cl)cc1Nc1ncc(Cl)c(-c2cn(S(=O)(=O)CC)c3ccccc23)n1
Reply: 12

Task item: Please report the measured IC50 for COc1cc(N2CCC(N3CCN(C)CC3)CC2)ccc1Nc1ncc(Cl)c(-c2cn(C(C)=O)c3ccccc23)n1
Reply: 8.5
